Examples of compounds with documented EC50 follow.
Molecular target: human CYP11B2 (Homo sapiens (Human))
Sequence (P19099 25-503): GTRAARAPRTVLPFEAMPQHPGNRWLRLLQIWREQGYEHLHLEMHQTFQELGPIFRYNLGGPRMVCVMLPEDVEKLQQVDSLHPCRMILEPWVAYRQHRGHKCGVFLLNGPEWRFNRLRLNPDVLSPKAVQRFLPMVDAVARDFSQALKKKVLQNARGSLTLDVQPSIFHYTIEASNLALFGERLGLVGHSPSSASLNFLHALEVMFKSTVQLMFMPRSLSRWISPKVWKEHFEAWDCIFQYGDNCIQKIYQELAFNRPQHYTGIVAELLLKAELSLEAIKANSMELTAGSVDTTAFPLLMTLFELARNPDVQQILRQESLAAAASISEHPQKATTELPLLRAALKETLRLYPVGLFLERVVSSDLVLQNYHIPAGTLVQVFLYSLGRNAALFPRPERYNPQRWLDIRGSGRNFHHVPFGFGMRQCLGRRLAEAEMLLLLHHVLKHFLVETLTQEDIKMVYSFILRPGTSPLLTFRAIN
Test: G-402 cellular enzyme assay, human CYP11B2 (aldosterone release, HTRF)
Conditions: G-402 cells expressing human CYP11B2; 1 μM Deoxycorticosterone
Hey, just the number and the unit after it is fine.

Compound	EC50
CCC(=O)NC1CCCc2c(-c3cc4c(cc3F)N(C)C(=O)CC4)cncc21 (racemic) [Example 28]	74.9 nM

-- ask I would be grateful if you could share the reported EC50 for CCC(=O)N[C@H]1c2cncc(-c3cc4c(cc3F)N(C)C(=O)CC4)c2CC[C@@H]1F (single isomer, unassigned) .
-- reply 38.8 nM

-- ask I would be grateful if you could share the reported EC50 for CCS(=O)(=O)NC1CCc2c(-c3cc4c(cc3F)N(C)C(=O)CC4)cncc21 (single isomer, unassigned; (-)) [Example 26] .
-- reply 4550 nM

-- ask I would be grateful if you could share the reported EC50 for CCS(=O)(=O)NC1CCc2c(-c3ccc4c(c3)CCC(=O)N4C)cncc21 (racemic) .
-- reply 59 nM
